Tested on: MDA-MB-231 cells (breast adenocarcinoma)
assay protocol: cells
test parameters: read-out: LC50; MDA-MB-231; 50% net cell killing; 72 hours; SRB
reported endpoint: CC50 (nM)

| compound | target entity | operator | meas value |
| --- | --- | --- | --- |
| COc1c(C)cc2c(c1O)[C@@H]1[C@@H]3[C@@H]4SC[C@]5(N[C@H](C(=O)O)Cc6c5[nH]c5ccccc65)C(=O)OC[C@@H](c5c6c(c(C)c(OC(C)=O)c54)OCO6)N3[C@@H](C#N)[C@H](C2)N1C [Compound 14-S, reference compound] | MDA-MB-231 cells (breast adenocarcinoma) | > | 124 |
| COc1c(C)cc2c(c1O)[C@@H]1[C@@H]3[C@@H]4SC[C@]5(N[C@@H](CO)Cc6c5oc5ccccc65)C(=O)OC[C@@H](c5c6c(c(C)c(OC(C)=O)c54)OCO6)N3[C@@H](C#N)[C@H](C2)N1C [Compound 38-R] | MDA-MB-231 cells (breast adenocarcinoma) | = | 2.01 |
| COc1ccc2[nH]c3c(c2c1)C[C@H](C(=O)O)N[C@]31CS[C@@H]2c3c(OC(C)=O)c(C)c4c(c3[C@H](COC1=O)N1[C@@H]2[C@H]2c3c(cc(C)c(OC)c3O)C[C@@H]([C@@H]1C#N)N2C)OCO4 [Compound 28-R, reference compound] | MDA-MB-231 cells (breast adenocarcinoma) | = | 91.9 |
| C=CCOC(=O)NC[C@@H]1Cc2c([nH]c3ccc(OC)cc23)[C@@]2(CS[C@@H]3c4c(OC(C)=O)c(C)c5c(c4[C@H](COC2=O)N2[C@@H]3[C@H]3c4c(cc(C)c(OC)c4O)C[C@@H]([C@@H]2C#N)N3C)OCO5)N1 [Compound 25-S] | MDA-MB-231 cells (breast adenocarcinoma) | = | 15.4 |
| COc1c(C)cc2c(c1O)[C@@H]1[C@@H]3[C@@H]4SC[C@]5(N[C@H](COC(C)=O)Cc6c5[nH]c5ccccc65)C(=O)OC[C@@H](c5c6c(c(C)c(OC(C)=O)c54)OCO6)N3[C@@H](C#N)[C@H](C2)N1C [Compound 3a-S] | MDA-MB-231 cells (breast adenocarcinoma) | = | 4.9 |
| COc1c(C)cc2c(c1O)[C@@H]1[C@@H]3[C@@H]4SC[C@]5(N[C@@H](CO)Cc6c5[nH]c5ccccc65)C(=O)OC[C@@H](c5c6c(c(C)c(OC(C)=O)c54)OCO6)N3[C@@H](C#N)[C@H](C2)N1C [Compound 3-R] | MDA-MB-231 cells (breast adenocarcinoma) | = | 1.25 |
| COc1ccc2[nH]c3c(c2c1)C[C@@H](CO)N[C@]31CS[C@@H]2c3c(OC(C)=O)c(C)c4c(c3[C@H](COC1=O)N1[C@@H]2[C@H]2c3c(cc(C)c(OC)c3O)C[C@@H]([C@@H]1C#N)N2C)OCO4 [Compound 18-S] | MDA-MB-231 cells (breast adenocarcinoma) | = | 1.58 |
| C=CCOC(=O)NC[C@H]1Cc2c([nH]c3ccc(OC)cc23)[C@@]2(CS[C@@H]3c4c(OC(C)=O)c(C)c5c(c4[C@H](COC2=O)N2[C@@H]3[C@H]3c4c(cc(C)c(OC)c4O)C[C@@H]([C@@H]2C#N)N3C)OCO5)N1 [Compound 25-R] | MDA-MB-231 cells (breast adenocarcinoma) | = | 8.38 |
| COc1c(C)cc2c(c1O)[C@@H]1[C@@H]3[C@@H]4SC[C@]5(N[C@H](C)Cc6c5[nH]c5ccccc65)C(=O)OC[C@@H](c5c6c(c(C)c(OC(C)=O)c54)OCO6)N3[C@@H](O)[C@H](C2)N1C [Compound C] | MDA-MB-231 cells (breast adenocarcinoma) | > | 130 |
| COc1c(C)cc2c(c1O)[C@@H]1[C@@H]3[C@@H]4SC[C@]5(NCCc6c5oc5ccccc65)C(=O)OC[C@@H](c5c6c(c(C)c(OC(C)=O)c54)OCO6)N3[C@@H](C#N)[C@H](C2)N1C [Compound 31] | MDA-MB-231 cells (breast adenocarcinoma) | = | 35.3 |
| COc1c(C)cc2c(c1O)[C@@H]1[C@@H]3[C@@H]4SC[C@]5(N[C@H](CO)Cc6c5oc5ccccc65)C(=O)OC[C@@H](c5c6c(c(C)c(OC(C)=O)c54)OCO6)N3[C@@H](C#N)[C@H](C2)N1C [Compound 38-S] | MDA-MB-231 cells (breast adenocarcinoma) | = | 7.8 |
| COc1ccc2[nH]c3c(c2c1)C[C@H](CO)N[C@]31CS[C@@H]2c3c(OC(C)=O)c(C)c4c(c3[C@H](COC1=O)N1[C@@H]2[C@H]2c3c(cc(C)c(OC)c3O)C[C@@H]([C@@H]1C#N)N2C)OCO4 [Compound 18-R] | MDA-MB-231 cells (breast adenocarcinoma) | = | 1.46 |
| COc1c(C)cc2c(c1O)[C@@H]1[C@@H]3[C@@H]4SC[C@]5(N[C@@H](C)Cc6c5[nH]c5ccccc65)C(=O)OC[C@@H](c5c6c(c(C)c(OC(C)=O)c54)OCO6)N3[C@@H](O)[C@H](C2)N1C [Compound D] | MDA-MB-231 cells (breast adenocarcinoma) | = | 53.3 |
| COc1ccc2[nH]c3c(c2c1)C[C@@H](C(=O)O)N[C@]31CS[C@@H]2c3c(OC(C)=O)c(C)c4c(c3[C@H](COC1=O)N1[C@@H]2[C@H]2c3c(cc(C)c(OC)c3O)C[C@@H]([C@@H]1C#N)N2C)OCO4 [Compound 28-S, reference compound] | MDA-MB-231 cells (breast adenocarcinoma) | = | 394 |
| COc1c(C)cc2c(c1O)[C@@H]1[C@@H]3[C@@H]4SC[C@]5(N[C@H](C)Cc6c5[nH]c5ccccc65)C(=O)OC[C@@H](c5c6c(c(C)c(OC(C)=O)c54)OCO6)N3[C@@H](C#N)[C@H](C2)N1C [A, reference compound] | MDA-MB-231 cells (breast adenocarcinoma) | = | 14.1 |
| COc1ccc2[nH]c3c(c2c1)C[C@H](CN)N[C@]31CS[C@@H]2c3c(OC(C)=O)c(C)c4c(c3[C@H](COC1=O)N1[C@@H]2[C@H]2c3c(cc(C)c(OC)c3O)C[C@@H]([C@@H]1C#N)N2C)OCO4 [Compound 26-R] | MDA-MB-231 cells (breast adenocarcinoma) | = | 1.46 |

Data credit: patent US12384800B2
